# target desc: HLA-A*02:01 (Homo sapiens, UniProt P04439, D140Y/D185E/D98H/E176V/E277Q/G131W/G231S/I119V/I121R/I166T/I218V/L300P/L318F/N151K/N90K/P208A/P217A/Q86G/Q94H/R138H/R169H/T345S)
# assay details: MHC binding assay (UV-ligand exchange, beta2m ELISA, peptide exchange yield)
# study conditions: binding of HLA-class I restricted peptides to HLA-A*02:01, ranged by peptide exchange yield (UV-ligand exchange, β2m ELISA)
measured quantity: Peptide exchange

Here is how some substances turned out for Peptide exchange.
{"columns": ["substance", "Peptide exchange"],
 "data": [
  ["271 (LVYPLELYPA; listed as Homo sapiens) [compound 271]", "″+++″ (≥50% = +++)"],
  ["600 (ALAAPDIVPAL; listed as Homo sapiens) [compound 600]", "″+++″ (≥50% = +++)"],
  ["239 (AAFAGKLLSV; listed as Homo sapiens) [compound 239]", "″+++″ (≥50% = +++)"],
  ["41 (SLMPHIPGL; listed as Homo sapiens) [compound 41]", "″+++″ (≥50% = +++)"],
  ["346 (LLDSKVPSV; listed as Homo sapiens) [compound 346]", "″+++″ (≥50% = +++)"],
  ["111 (YVWGFYPAEV; listed as Homo sapiens) [compound 111]", "″+++″ (≥50% = +++)"]
]}

Entry 214 (FLLDLDPLLL; listed as Homo sapiens) [compound 214] : reported Peptide exchange = ?
″+++″ (≥50% = +++)

Entry 311 (RLYTGMHTV; listed as Homo sapiens) [compound 311] : reported Peptide exchange = ?
″+++″ (≥50% = +++)

Entry 190 (FLSSLTETI; listed as Homo sapiens) [compound 190] : reported Peptide exchange = ?
″+++″ (≥50% = +++)

Entry 490 (FLLQHVQEL; listed as Homo sapiens) [compound 490] : reported Peptide exchange = ?
″+++″ (≥50% = +++)
